- Tested on: RKO (human colon adenocarcinoma cell)
- experiment_notes: MTT growth inhibition of human solid tumor cells, 72 h
- Format: cell-based
- setup_conditions: MTT
So basically: is IC90 RKO under 0.9 µg/mL? Then 1.0. Not under? Then 0.0.

> print(dat)
                                smiles.repr                         assayed.target  answer.label
1  COC(=O)C[C@](O)(CCCC(C)(C)OC(=O)c1cnoc1C)C(=O)O[C@@H]1C(OC)=C[C@]23CCCN2CCc2cc4c(cc2[C@H]13)OCO4  RKO (human colon adenocarcinoma cell)           1.0

Record COC(=O)C[C@@](CCCC(C)(C)OC(=O)c1ccccc1)(OC(=O)c1ccccc1)C(=O)O[C@@H]1C(OC)=C[C@]23CCCN2CCc2cc4c(cc2[C@H]13)OCO4 : is its IC90 RKO strictly below 0.9 µg/mL?
0.0

Record COC(=O)C[C@](O)(CCCC(C)(C)OC(=O)C1CCCCC1)C(=O)O[C@@H]1C(OC)=C[C@]23CCCN2CCc2cc4c(cc2[C@H]13)OCO4 : is its IC90 RKO strictly below 0.9 µg/mL?
1.0

Record COC(=O)C[C@@](CCCC(C)(C)OC(=O)/C=C/c1ccco1)(OC(=O)/C=C/c1ccco1)C(=O)O[C@@H]1C(OC)=C[C@]23CCCN2CCc2cc4c(cc2[C@H]13)OCO4 : is its IC90 RKO strictly below 0.9 µg/mL?
1.0

Record COC(=O)C[C@@](CCCC(C)(C)OC(=O)c1scnc1C)(OC(=O)c1scnc1C)C(=O)O[C@@H]1C(OC)=C[C@]23CCCN2CCc2cc4c(cc2[C@H]13)OCO4 : is its IC90 RKO strictly below 0.9 µg/mL?
1.0
